Documented TGI across a set of compounds
Test system: OVCAR-4 ovarian
Experiment: NCI tumour cell line growth inhibition, 48 h

Before answering, review these 4 worked examples.
COMPOUND: CC(CN(C)C)C(O)(c1ccccc1)c1ccccc1 (stereo not given)
MEASURED_ON: OVCAR-4 ovarian
TGI: > 100 µM
//
COMPOUND: CCC[CH2][Ge]([CH2]CCC)([CH2]CCC)[O]C(=O)CCl
MEASURED_ON: OVCAR-4 ovarian
TGI: 21.5 µM
//
COMPOUND: C[C@@H]1CC[C@H]2C(CN3CCN(CC4=C(C(F)(F)F)O[C@@H]5O[C@@]6(C)CC[C@H]7[C@H](C)CC[C@@H]4[C@@]57OO6)CC3)=C(C(F)(F)F)O[C@@H]3O[C@@]4(C)CC[C@@H]1[C@]32OO4
MEASURED_ON: OVCAR-4 ovarian
TGI: > 100 µM
//
COMPOUND: Cc1cc(C(=O)NCCN(C)C)c2nc3ccccc3nc2c1
MEASURED_ON: OVCAR-4 ovarian
TGI: 19.5 µM

Missing value: TGI, OVCAR-4 ovarian, entry "CCCCC[C@@H]1OC(=O)[C@@]2(CC3c4ccccc4C2c2ccccc23)[C@H]1C(=O)OC" . Fill in? > 100 µM

Missing value: TGI, OVCAR-4 ovarian, entry "Cc1cc(I)cc(CN(C)CCCCN2CCCC2)c1O" . Fill in? > 100 µM

Missing value: TGI, OVCAR-4 ovarian, entry "C[Si](C)(C)[C@@]1([Se]c2ccccc2)CC[C@@H]1C(=O)c1ccccc1" . Fill in? > 100 µM

Missing value: TGI, OVCAR-4 ovarian, entry O=C(NNc1ccc([N+](=O)[O-])cc1)C1OC(CO)C(O)C1O (stereo not given) . Fill in? > 100 µM

Missing value: TGI, OVCAR-4 ovarian, entry "Cc1[nH]nc(C(=O)N/N=C/c2cccs2)c1N=NN(C)C" . Fill in? 31 µM

Missing value: TGI, OVCAR-4 ovarian, entry "C/C(=N\n1c(N)c(C#N)c(-c2ccc(Cl)cc2)c(C#N)c1=O)c1cccnc1" . Fill in? > 100 µM

====

Test system: T-47D breast
Experiment: NCI tumour cell line growth inhibition, 48 h
Documented GI50 across a set of molecules

Before answering, review these 6 worked examples.
CHEMICAL_STRING: NC(=O)c1ccc(-c2c3ccccc3cc3c2ccc2ccccc23)cc1
RECORDED_ENDPOINT: GI50
RESULT: 3.19 µM
//
CHEMICAL_STRING: CCNC1=CC(=O)c2ncccc2C1=O
RECORDED_ENDPOINT: GI50
RESULT: 4.45 µM
//
CHEMICAL_STRING: Fc1ccc(-c2c(-c3ccncc3)n(CCN3CCOCC3)c3cccnc23)cc1
RECORDED_ENDPOINT: GI50
RESULT: > 25 µM
//
CHEMICAL_STRING: C/C(=N\n1c(N)c(C#N)c(-c2ccc(Cl)cc2)c(C#N)c1=O)c1cccnc1
RECORDED_ENDPOINT: GI50
RESULT: > 100 µM
//
CHEMICAL_STRING: Nc1ccccc1C#Cc1ccccc1C#CCCCCO
RECORDED_ENDPOINT: GI50
RESULT: 30.3 µM
//
CHEMICAL_STRING: CCN(CC)c1ccc(/C=N\NC(=O)c2cccc(Nc3ccnc(C(F)(F)F)c3)c2)c(O)c1
RECORDED_ENDPOINT: GI50
RESULT: 0.485 µM

Request the reported GI50 associated with "O=c1c2c(=NCCCN3CCCC3)cc3c(=O)n(CCCN4CCCC4)c(=O)c4c(NCCCN5CCCC5)cc(c(O)n1CCCN1CCCC1)c2c4-3" 2.89 µM

====

Test system: PC-3 prostate
Assay: NCI tumour cell line growth inhibition, 48 h
RECORDED_ENDPOINT: TGI

Before answering, review these 5 worked examples.
COMPOUND: CC(C)(C)c1ccc(C(O)(c2ccc(C(C)(C)C)cc2)c2ccc(C(C)(C)C)cc2)cc1
TGI: > 100 µM

COMPOUND: COc1cc(/C=C2\N=C(c3ccccc3)N(c3ccc(C(=O)c4ccccc4)cc3N3C(=O)/C(=C/c4cc(OC)c(OC)c(OC)c4)N=C3c3ccccc3)C2=O)cc(OC)c1OC
TGI: 46 µM

COMPOUND: NC(=S)N1N=C(c2ccc3c(c2)CCC3)CC1c1ccccc1 (centres undefined)
TGI: 87.8 µM

COMPOUND: CCn1cc(C2NC(=O)c3cc(F)ccc3N2)c2cccc(Cl)c21 (centres undefined)
TGI: > 100 µM

COMPOUND: Cc1cccc(/C=N/NC(=S)NC(C)(C)C)n1
TGI: > 100 µM

Missing value: TGI, PC-3 prostate, entry "COc1cc2c(cc1OCc1ccccc1)NC(=O)[C@@H]1C[C@@H](O)CN1C2=O" . Fill in? > 100 µM

Missing value: TGI, PC-3 prostate, entry "C[C@@H]1CC[C@H]2C(CN3CCN(CC4=C(C(F)(F)F)O[C@@H]5O[C@@]6(C)CC[C@H]7[C@H](C)CC[C@@H]4[C@@]57OO6)CC3)=C(C(F)(F)F)O[C@@H]3O[C@@]4(C)CC[C@@H]1[C@]32OO4" . Fill in? > 100 µM

Missing value: TGI, PC-3 prostate, entry CCCS(=O)OC1C(C2COC(C)(C)O2)OC2OC(C)(C)OC21 (centres undefined) . Fill in? 24 µM

Missing value: TGI, PC-3 prostate, entry COc1cc(SC)ccc1C(=O)N1CCCC(C)C1 (centres undefined) . Fill in? > 100 µM

====

Tested on: NCI-H23 lung
Experiment: NCI tumour cell line growth inhibition, 48 h
RECORDED_ENDPOINT: GI50

Before answering, review these 2 worked examples.
COMPOUND: CN(C)c1ccc(/C=N/Nc2ccc(-c3nc4ccccc4[nH]3)cc2)cc1
GI50: 13.8 µM

COMPOUND: C[C@H]1CC(=O)[C@@]2(O)C#C/C=C\C#C[C@@H]3Nc4c(cc(O)c5c4C(=O)c4ccccc4C5=O)[C@]24O[C@]314
GI50: 0.00359 µM

Request the reported GI50 associated with CCn1cc(C2NC(=O)c3cc(F)ccc3N2)c2cccc(Cl)c21 (centres undefined) 0.508 µM

Request the reported GI50 associated with "O=C(Nc1ccc(-c2nc3ccc(NC(=O)c4ccc(Cl)cc4)cc3[nH]2)cc1)c1ccc(Cl)cc1" 4.63 µM

Request the reported GI50 associated with "C=C1C(=O)O[C@H]2[C@H](OC(C)=O)[C@@H](C)CCC/C(C)=C/CC[C@]3(CO3)[C@H](O)C[C@@H]12" 4.87 µM

Request the reported GI50 associated with "O=C(N/N=C\c1cc(Cl)ccc1O)N/N=C/c1cc(Cl)ccc1O" 2.34 µM

Request the reported GI50 associated with "Fc1cc(Nc2ccc3c(OCCCN4CCOCC4)cccc3n2)ccc1Cl" 2.21 µM

Request the reported GI50 associated with "NC(=O)c1ccc(NC(=O)c2oc3ccccc3c2-c2cnn(-c3ccccc3)c2)cc1" 6 µM

Request the reported GI50 associated with "COCCOCCOCCOCCOc1ccc2c(c1)C(=O)c1nc3ncccc3c(=O)n1-2" 0.279 µM

====

System: OVCAR-4 ovarian
Test: NCI tumour cell line growth inhibition, 48 h
Documented TGI across a set of compounds

Before answering, review these 8 worked examples.
COMPOUND: O=C(n1c(=O)n(-c2ccc([N+](=O)[O-])cc2)c(=O)n1C(=O)C(Cl)(Cl)Cl)C(Cl)(Cl)Cl
MEASURED_ON: OVCAR-4 ovarian
TGI: > 100 µM

COMPOUND: N#CC(C#N)=C/C=C/c1cccc([N+](=O)[O-])c1
MEASURED_ON: OVCAR-4 ovarian
TGI: 13.9 µM

COMPOUND: Cc1ccc(C)c(NC(=O)CCc2n[nH]c(=S)o2)c1
MEASURED_ON: OVCAR-4 ovarian
TGI: > 100 µM

COMPOUND: NC(=O)c1ccc(-c2c3ccccc3cc3c2ccc2ccccc23)cc1
MEASURED_ON: OVCAR-4 ovarian
TGI: 29.7 µM

COMPOUND: CCn1c2ccccc2c2cc(NC(=O)c3c(C)[nH]c(=O)[nH]c3=S)ccc21
MEASURED_ON: OVCAR-4 ovarian
TGI: > 100 µM

COMPOUND: CC(C)c1cc2c(O)c(c1)Cc1cc(C(C)C)cc(c1O)Cc1cc(C(C)C)cc(c1O)Cc1cc(C(C)C)cc(c1O)Cc1cc(C(C)C)cc(c1O)Cc1cc(C(C)C)cc(c1O)C2
MEASURED_ON: OVCAR-4 ovarian
TGI: > 100 µM

COMPOUND: Cc1cccc(/C=N/NC(=S)NC(C)(C)C)n1
MEASURED_ON: OVCAR-4 ovarian
TGI: > 100 µM

COMPOUND: C#Cc1ccccc1C(=O)OC
MEASURED_ON: OVCAR-4 ovarian
TGI: > 100 µM

Request the reported TGI associated with "O=C1C(=O)C(CCCO)(CCCO)CCCCCCCCC1(CCCO)CCCO" > 100 µM

Request the reported TGI associated with "CCCNC(=O)Cn1c(-c2ccccc2)cc2ccccc21" > 100 µM

Request the reported TGI associated with "Cc1cccc(-c2cc(=O)c3c(C)ccnc3[nH]2)c1" > 100 µM

Request the reported TGI associated with CC(=O)OCC1OC(O[C@@H]2C[C@H]3C(C)(C)[C@H](OC(C)=O)CC[C@]3(C)[C@H]3CC[C@@H]4[C@]5(CC[C@@]4(C)[C@@]32C)O[C@@H]([C@H](O)C(C)(C)O)C[C@@H]5C)C(O)C(O)C1O (some centres undefined) 16.4 µM

Request the reported TGI associated with "COCCn1cc(-c2csc(-c3c[nH]c4ccc(F)cc34)n2)c2cccnc21" > 100 µM
